// provenance: paper PMC12529666

- target-or-system: AGO2 L192P (Homo sapiens, UniProt Q9UKV8 1-859, L192P;S387D;S824A;S828D;S831D;S834A)
- Sequence (Q9UKV8 whole entry L192P/S387D/S824A/S828D/S831D/S834A): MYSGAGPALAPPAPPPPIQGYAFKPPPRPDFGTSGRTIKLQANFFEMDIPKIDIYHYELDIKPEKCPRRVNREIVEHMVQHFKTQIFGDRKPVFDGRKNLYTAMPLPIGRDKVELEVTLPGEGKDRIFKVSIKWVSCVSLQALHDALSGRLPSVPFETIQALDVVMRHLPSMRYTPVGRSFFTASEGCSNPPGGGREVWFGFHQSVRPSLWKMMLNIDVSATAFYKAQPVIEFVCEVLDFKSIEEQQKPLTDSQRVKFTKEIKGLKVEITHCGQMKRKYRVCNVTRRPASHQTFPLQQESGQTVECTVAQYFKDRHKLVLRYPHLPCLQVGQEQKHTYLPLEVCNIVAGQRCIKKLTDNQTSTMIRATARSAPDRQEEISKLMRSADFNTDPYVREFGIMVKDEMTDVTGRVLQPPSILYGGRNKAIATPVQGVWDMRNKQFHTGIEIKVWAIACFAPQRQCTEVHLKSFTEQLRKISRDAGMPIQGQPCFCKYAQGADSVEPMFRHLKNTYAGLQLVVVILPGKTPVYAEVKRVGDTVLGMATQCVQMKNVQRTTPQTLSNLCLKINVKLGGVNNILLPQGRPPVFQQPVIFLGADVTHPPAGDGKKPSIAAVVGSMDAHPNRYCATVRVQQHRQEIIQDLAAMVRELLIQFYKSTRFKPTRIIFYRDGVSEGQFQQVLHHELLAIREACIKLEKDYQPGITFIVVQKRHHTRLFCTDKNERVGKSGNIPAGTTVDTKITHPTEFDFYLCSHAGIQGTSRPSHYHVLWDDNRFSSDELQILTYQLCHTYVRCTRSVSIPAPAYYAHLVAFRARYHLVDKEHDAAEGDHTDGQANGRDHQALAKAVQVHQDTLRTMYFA
- test-method-notes: RNA Bind-n-Seq (nitrocellulose filter binding and sequencing); miR-122 guide loaded in AGO2; 60 min incubation; 30 mM Tris pH 8.0, 100 mM potassium acetate, 2 mM magnesium acetate, 0.5 mM TCEP, 0.005% NP-40, 0.01 mg/ml yeast tRNA; 3 nM AGO2-miR-122, 100 nM RNA library; 60; high values mean tight binding
- particulars: protein: recombinant; tags: His6 (N-terminal, pFastBac HTA)
Provide the reported binding signal of each item.

Q: Suppose we examine the binder GCACCTTA (ssRNA, constant regions annealed to DNA blockers; guide miR-122 5' phosphate) RNA 1: GAGUUCUACAGUCCGACGAUCCCAACGCACCUUACACCUGGAAUUCUCGGGUGCCAA RNA 2: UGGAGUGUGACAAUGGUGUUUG DNA 1: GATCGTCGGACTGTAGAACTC DNA 2: TTGGCACCCGAGAATTCCA ; what binding signal value has been reported?
Ans: 0.59 fold enrichment over input

Q: Quick one: GCGCTCCA (ssRNA, constant regions annealed to DNA blockers; guide miR-122 5' phosphate) RNA 1: GAGUUCUACAGUCCGACGAUCCCAACGCGCUCCACACCUGGAAUUCUCGGGUGCCAA RNA 2: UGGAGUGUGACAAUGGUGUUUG DNA 1: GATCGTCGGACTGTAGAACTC DNA 2: TTGGCACCCGAGAATTCCA
Ans: 3.25 fold enrichment over input
